Study Target: human σ2/TMEM97 receptor (Homo sapiens)
Protocol Summary: Binding assay to human σ2/TMEM97 receptor ([3H]-DTG, transfected HEK-293 membranes)
Measurement Context: class scale, read-out: Binding σ-2 Ki
Consider the following compounds and their measured Ki readings.

Known results for compounds:
- Cc1cc(-c2nn(C)c(Cl)c2C(=O)N2CCCCC(NCCc3ccccc3)C2)no1 (stereo not drawn): 100 to 500 nM
- Cc1conc1-c1nn(C)c(Cl)c1CN1CCCCC(NCCC(C)(C)C)C1 (stereo not drawn): < 100 nM

human σ2/TMEM97 receptor (Homo sapiens) data for "Cn1nc(-c2cccc(C(F)(F)F)n2)c(CN2CC3(CCN(CCC(C)(C)C)CC3)CC2=O)c1Cl" ; its Ki: < 100 nM

// assay human σ2/TMEM97 receptor (Homo sapiens), entry Cc1cc(-c2nn(C)c(Cl)c2C(=O)N2CCCC(CN(C)CC(C)C)C2)no1 (stereo not drawn) , Ki value = > 1000 nM

For the compound "CCn1ccc(-c2nn(C)c(Cl)c2C(=O)N2CCCC3(CCN(CCC(C)(C)C)CC3)C2)n1" , the measured Ki on human σ2/TMEM97 receptor (Homo sapiens) was < 100 nM

So the reported Ki for "CCn1nc(-c2cc(C)on2)c(CC(=O)N2CCC3(CCN(CCC(C)(C)C)CC3)CC2)c1Cl" , on human σ2/TMEM97 receptor (Homo sapiens), turned out to be < 100 nM

Observed Ki, human σ2/TMEM97 receptor (Homo sapiens), Cc1cc(-c2nn(-c3ccccc3)c(Cl)c2CN2CCCCC(NCCC(C)C)C2)no1 (stereo not drawn) : > 1000 nM

With human σ2/TMEM97 receptor (Homo sapiens) as the test system, "CCCn1nc(-c2cc(C)on2)c(C(=O)N2CC3(CCN(CCC(C)(C)C)CC3)C2)c1Cl" showed Ki of < 100 nM

Ki value, target or system human σ2/TMEM97 receptor (Homo sapiens), for "Cn1nc(-c2cccc(C(F)(F)F)n2)c(CC(=O)NC2CCN(CCC(C)(C)C)CC2)c1Cl" : < 100 nM

Readout Ki for "CCn1nc(-c2cc(C)on2)c(CC(=O)N2CCCC3(CCN(CCC(C)(C)C)CC3)C2)c1Cl" , test system human σ2/TMEM97 receptor (Homo sapiens), was < 100 nM

* * *

In this section we review reported pKi values for a set of molecules.
Study Target: human σ2/TMEM97 receptor (Homo sapiens, UniProt Q5BJF2)
Sequence (Q5BJF2 whole entry): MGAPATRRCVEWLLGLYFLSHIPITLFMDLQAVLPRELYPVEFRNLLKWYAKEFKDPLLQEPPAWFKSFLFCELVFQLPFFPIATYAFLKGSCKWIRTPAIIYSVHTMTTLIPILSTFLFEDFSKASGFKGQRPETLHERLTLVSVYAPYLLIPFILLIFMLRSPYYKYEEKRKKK
Protocol Summary: Binding assay to human σ2/TMEM97 receptor ([3H]-DTG, transfected HEK-293 membranes)
Measurement Context: class scale, read-out: Binding σ-2 Ki
pKi: −log10 of the molar value.

* Cc1cccc(-c2nn(C)c(Cl)c2C(=O)NC2CCC3(CC2)CCN(CCC(C)(C)C)CC3)n1 | > 7.00
* Cc1cc(-c2nn(C)c(Cl)c2CN2CCC3(CC2)CCN(CC(C)(C)C)CC3)no1 | > 7.00
* Cc1cc(-c2nn(C)c(Cl)c2C(=O)N2CCC3(CCN(CC(C)C)CC3)CC2)no1 | < 6.00
* Cc1cc(-c2nn(C)c(Cl)c2C(=O)N2CCC3(CCN(Cc4ccccc4)CC3)CC2)no1 | > 7.00

# pKi of "Cc1cc(-c2nn(C)c(Cl)c2CN2CC[C@H](CNCCC(C)(C)C)C2)no1" = > 7.00

Per the records, this molecule ( "Cn1nc(-c2cccc(C(F)(F)F)n2)c(CC(=O)N2CCC3(CCN(CCC(C)(C)C)CC3)CC2)c1Cl" ) has pKi equal to > 7.00

Measured pKi of "Cc1cc(-c2nn(C)c(Cl)c2C(=O)N2CCC3(CCC(NCCC(C)(C)C)CC3)CC2)no1" : 6.30 to 7.00

In plain terms, CC(C)CCNC1CCCCN(Cc2c(-c3nccn3C)nn(C)c2Cl)C1 (centres unmarked) has a documented pKi of 6.30 to 7.00

* * *

Study Target: human σ2/TMEM97 receptor (Homo sapiens, UniProt Q5BJF2)
Protocol Summary: Binding assay to human σ2/TMEM97 receptor ([3H]-DTG, transfected HEK-293 membranes)
Measurement Context: class scale, read-out: Binding σ-2 Ki
pKi: −log10 of the molar value.
Result Type: pKi

* CCn1nc(-c2cccc(C(F)(F)F)n2)c(C(=O)NC2CCN(CCC(C)(C)C)CC2)c1Cl | > 7.00
* CCn1nc(-c2cc(C)on2)c(C(=O)NC2CCCN(CCC(C)(C)C)C2)c1Cl (centres unmarked) | 6.30 to 7.00
* CCn1nc(-c2cccc(C(F)(F)F)n2)c(CC(=O)NC2CCN(CCC(C)(C)C)CC2)c1Cl | > 7.00

Attention now turns to another entry.
Record "CCCn1nc(-c2cc(C)on2)c(C(=O)N2CCC3(CCN(CCC(C)(C)C)CC3)CC2)c1Cl" , field pKi: > 7.00

* * *

Listed below: pKi values for each entry.
Study Target: human σ2/TMEM97 receptor (Homo sapiens)
Protocol Summary: Binding assay to human σ2/TMEM97 receptor ([3H]-DTG, transfected HEK-293 membranes)
Measurement Context: class scale, read-out: Binding σ-2 Ki
Protocol: Transfected HEK-293 membranes (15 μg) were incubated with 10 nM [^3H]-1,3-Di-o-tolylguanidine (DTG) in assay buffer containing Tris-HCl 50 mM at pH 8.0. NSB (non-specific binding) was measured by adding 10 μM haloperidol. […] Filters were dried and counted at approximately 40% efficiency in a MicroBeta scintillation counter (Perkin-Elmer) using EcoScint liquid scintillation cocktail.
pKi: −log10 of the molar value.

* Cc1cc(-c2nn(C)c(Cl)c2C(=O)N2CCC3(CCN(CC(=O)N4CCCCC4)CC3)CC2)no1 | 6.30 to 7.00
* CCn1nc(-c2ccon2)c(CC(=O)Nc2ccc3c(c2)CCN(CCC(C)(C)C)C3)c1Cl | > 7.00
* Cc1cc(-c2nn(C)c(Cl)c2C(=O)N2CCC3(CCN(Cc4ccc(F)cc4)CC3)CC2)no1 | > 7.00
* Cc1cc(-c2nn(C)c(Cl)c2CC(=O)N2CCC3(CCN(CCC(C)(C)C)CC3)CC2)no1 | > 7.00

Entry "CCn1nc(-c2cc(C)on2)c(C(=O)N2CCCC3(CN(CCC(C)(C)C)C3)C2)c1Cl" , pKi reported as > 7.00

The reported pKi of the compound "Cc1cc(-c2nn(C)c(Cl)c2C(=O)NC2CCN(CCC(C)(C)C)CC2)no1" was > 7.00

// pKi value for Cc1cc(-c2nn(C)c(Cl)c2CN2CCC(CNCCC(C)(C)C)C2)no1 (stereo not shown) : < 6.00

* * *

Below, each entry is listed with its recorded pKi.
Study Target: human σ2/TMEM97 receptor (Homo sapiens)
Protocol Summary: Binding assay to human σ2/TMEM97 receptor ([3H]-DTG, transfected HEK-293 membranes)
Measurement Context: class scale, read-out: Binding σ-2 Ki
Experimental: Transfected HEK-293 membranes (15 μg) were incubated with 10 nM [^3H]-1,3-Di-o-tolylguanidine (DTG) in assay buffer containing Tris-HCl 50 mM at pH 8.0. NSB (non-specific binding) was measured by adding 10 μM haloperidol. […] Filters were dried and counted at approximately 40% efficiency in a MicroBeta scintillation counter (Perkin-Elmer) using EcoScint liquid scintillation cocktail.
pKi: −log10 of the molar value.

- Cc1cc(-c2nn(C)c(Cl)c2CN2CCC[C@@H](NCCC(C)C)C2)no1: 6.30 to 7.00
- Cc1cc(-c2nn(C)c(Cl)c2CN2CCCCC(N(C)CCN3CCCCC3)C2)no1 (centres unmarked): 6.30 to 7.00
- Cc1cc(-c2nn(C)c(Cl)c2CN2CCCCC(N(C)CCC(C)C)C2)no1 (centres unmarked): 6.00 to 6.30
- Cc1cc(-c2nn(C)c(Cl)c2CN2CCC(CNCc3ccccc3)CC2)no1: 6.30 to 7.00
- Cc1cc(-c2nn(C)c(Cl)c2CN2CCCC(NCCC(C)C)CC2=O)no1 (centres unmarked): 6.30 to 7.00

response.value for "CCn1nc(-c2cc(C)on2)c(C(=O)N[C@@H]2CCN(CCC(C)(C)C)C2)c1Cl" (field: pKi) = > 7.00

Documented pKi of "CCn1nc(-c2cc(C)on2)c(C(=O)NCCC2CCN(CCC(C)(C)C)CC2)c1Cl" : > 7.00

* * *

Study Target: UniProt:Q99720
Sequence (Q99720 whole entry): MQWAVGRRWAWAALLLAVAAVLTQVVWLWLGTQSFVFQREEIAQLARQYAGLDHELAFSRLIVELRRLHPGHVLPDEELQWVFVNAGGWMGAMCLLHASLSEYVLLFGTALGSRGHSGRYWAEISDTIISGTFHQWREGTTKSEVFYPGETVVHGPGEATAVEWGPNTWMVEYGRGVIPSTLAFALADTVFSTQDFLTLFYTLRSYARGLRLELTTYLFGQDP
pKi: −log10 of the molar value.
Recorded measurements of pKi, one per entry

Sample answers from the record:
• CCn1nc(-c2cc(C)on2)c(C(=O)N2CCCC3(CCN(CCC(C)(C)C)CC3)C2)c1Cl = 6.30 to 7.00
• Cc1cc(-c2nn(C)c(Cl)c2CC(=O)N2CCC3(CCN(CCC(C)C)CC3)CC2)no1 = 6.30 to 7.00
• CCn1nc(-c2cc(C)on2)c(CC(=O)N2CCC3(CCN(CCC(C)(C)C)CC3)CC2)c1Cl = 6.00 to 6.30
• Cc1cc(-c2nn(C)c(Cl)c2C(=O)N2CCCC(CN(C)CCC(C)(C)C)C2)no1 (stereo not shown) = 6.30 to 7.00
• Cn1nc(-c2cccc(C(F)(F)F)n2)c(CN2CC3(CCN(CCC(C)(C)C)CC3)CC2=O)c1Cl = > 7.00
• Cn1cc(-c2nn(C)c(Cl)c2C(=O)N2CCCC3(CCN(CCC(C)(C)C)CC3)C2)cn1 = < 6.00
• Cc1cc(-c2nn(C)c(Cl)c2C(=O)N2CCCC3(CCN(Cc4ccc(F)c(F)c4)CC3)C2)no1 = 6.30 to 7.00
• Cc1cc(-c2nn(C)c(Cl)c2CN2CCC(C3(NCCC(C)C)CC3)C2)no1 (stereo not shown) = 6.00 to 6.30
• Cc1cc(-c2nn(C)c(Cl)c2CN2CC[C@]3(CCN(CCC(C)(C)C)C3)C2)no1 = > 7.00
• Cc1cc(-c2nn(C)c(Cl)c2CN2CC[C@H](CNCCC(C)(C)C)C2)no1 = 6.30 to 7.00

Recorded pKi for CC(C)CCNC1CCCCN(Cc2c(-c3cc(C(C)C)on3)nn(C)c2Cl)C1 (stereo not shown) on UniProt:Q99720 was 6.30 to 7.00

Entry "Cc1cccc(-c2nn(C)c(Cl)c2C(=O)NC2CCC3(CC2)CCN(CCC(C)(C)C)CC3)n1" , UniProt:Q99720 data, pKi value: > 7.00

Known value: UniProt:Q99720 pKi of the compound "CCn1nc(-c2cnn(C(C)C)c2)c(C(=O)N2CCC3(CCN(CCC(C)(C)C)CC3)CC2)c1Cl" equals 6.00 to 6.30

// pKi (UniProt:Q99720) for "Cc1cc(-c2nn(C)c(Cl)c2C(=O)N2CCC3(CCN(Cc4ccc(C#N)c(F)c4)CC3)CC2)no1" = 6.00 to 6.30

# pKi measured on UniProt:Q99720 for item Cn1nc(-c2cccnc2)c(CN2CCCCC(NCCC(C)(C)C)C2)c1Cl (stereo not shown) = 6.30 to 7.00

"Cc1cc(-c2nn(C)c(Cl)c2CN2C[C@@H](CNCCC(C)(C)C)[C@H](C)C2)no1" tested on UniProt:Q99720 gave pKi: 6.30 to 7.00
